- procedureSummary: in vivo
- conditionsUsed: rat, po
observable: ED50 at 8 h
Be sure to follow the number with its unit.

Look up ED50 at 8 h for this compound: O=C(CCCN1CCC(O)(c2ccc(Cl)cc2)CC1)c1ccc(F)cc1 [Haloperidol, reference compound]
0.88 mg/kg

###

- procedureSummary: Catalepsy Test in Rats
- conditionsUsed: rat, in vivo, po
observable: ED50 at 8 h (mg/kg)
Numbers only here, please. The scale is mg/kg.

Requested field: ED50 at 8 h. Item: O=C(CCCN1CCC(n2c(O)nc3ccccc32)CC1)c1ccc(F)cc1 [Benperidol, reference compound]
0.92

###

- procedureSummary: Catalepsy Test in Rats
- conditionsUsed: rat, in vivo, po
Record form. Attribute: ED50 at 10 h. Fill in for each entry.
Give the value in mg/kg but do not write mg/kg after it.

Quick check: ED50 at 10 h of CSc1nc2ccccc2n1C1CCN(CCCC(=O)c2ccc(F)cc2)CC1 [Compound B] ?
0.68

Thanks! And O=C(CCCN1CCC(n2c(S)nc3ccccc32)CC1)c1ccc(F)cc1 [Compound A] ?
0.25
